# tested_system: Vitamin D3 receptor (Homo sapiens)
# method_summary: Inhibitors of the vitamin D receptor (VDR): qHTS; for max response, negative = inhibition: % is set by controls: 0 for no effect and ±100 for the full control effect
# setup_conditions: VDR-SRC2-3 peptide fluorescence polarization, 2 h; stronger effect = lower value
About 3,700 (0.93%) of roughly 400,000 compounds were called active. Another 3% or so got no clear call; they are omitted. Many of the other results were omitted from the sample, so actives are more common in it than they were.
property_name: max response, negative = inhibition (%)
// units = %; emit number, no label

Exam item: I'm curious: which max response, negative = inhibition was measured for O=C(Nc1ccccc1Cl)N1CCC(CN2CCCC2)CC1 tested on Vitamin D3 receptor (Homo sapiens)?
Marked response: 6.62

Exam item: I'm curious: which max response, negative = inhibition was measured for CCN(CC)S(=O)(=O)c1ccc2c(c1)nc(CN(C)C(=O)Nc1ccc(Cl)cc1)n2C tested on Vitamin D3 receptor (Homo sapiens)?
Marked response: 11

Exam item: I'm curious: which max response, negative = inhibition was measured for COc1cc(OC)c(NC(=O)Cc2ccc(-n3c(C)nc4cccnc43)cc2)cc1Cl tested on Vitamin D3 receptor (Homo sapiens)?
Marked response: 1.5

Exam item: I'm curious: which max response, negative = inhibition was measured for Cc1c2cnn(-c3ccccc3)c(=O)c2c(C)n1C(C)C(=O)Nc1ccc(Br)cc1F (stereo not given) tested on Vitamin D3 receptor (Homo sapiens)?
Marked response: 11.8

Exam item: I'm curious: which max response, negative = inhibition was measured for CCOc1ccc(CNC(=O)c2cc(=O)[nH]c3ccc(S(=O)(=O)N4CCCCC4)cc23)cc1 tested on Vitamin D3 receptor (Homo sapiens)?
Marked response: 6.6

* * *

# tested_system: Vitamin D3 receptor (Homo sapiens) (UniProt P11473)
# Sequence (P11473 whole entry, looked up): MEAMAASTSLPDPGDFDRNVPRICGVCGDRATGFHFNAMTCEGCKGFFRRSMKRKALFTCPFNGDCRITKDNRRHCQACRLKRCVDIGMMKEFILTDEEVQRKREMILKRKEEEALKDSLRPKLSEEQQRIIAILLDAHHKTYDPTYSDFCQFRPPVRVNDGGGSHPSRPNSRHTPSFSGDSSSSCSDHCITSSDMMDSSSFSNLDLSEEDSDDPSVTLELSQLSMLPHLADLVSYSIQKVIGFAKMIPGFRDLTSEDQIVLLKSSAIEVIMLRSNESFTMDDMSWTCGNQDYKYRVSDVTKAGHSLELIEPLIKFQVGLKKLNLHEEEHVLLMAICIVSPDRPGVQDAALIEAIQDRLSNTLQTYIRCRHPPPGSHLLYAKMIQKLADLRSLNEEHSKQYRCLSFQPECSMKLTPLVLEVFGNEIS
# method_summary: Inhibitors of the vitamin D receptor (VDR): qHTS; for max response, negative = inhibition: % is set by controls: 0 for no effect and ±100 for the full control effect
# setup_conditions: VDR-SRC2-3 peptide fluorescence polarization, 2 h; stronger effect = lower value
Out of some 400,000 compounds screened, about 3,700 (0.93%) were called active. Roughly 3% stayed inconclusive and do not appear here. For the sample, actives were picked, then their nearest neighbours and some compounds at random.
property_name: max response, negative = inhibition (%)
// units = %; emit number, no label

Exam item: Dear colleague, I am looking for the recorded max response, negative = inhibition of the following compound: COc1ccccc1N1CCN(/N=C/c2ccc(O)cc2O)CC1
Marked response: -16.7

Exam item: Dear colleague, I am looking for the recorded max response, negative = inhibition of the following compound: Cc1ccc(-c2nn(CC(C)(C)C)c3ncnc(N)c23)cc1
Marked response: -0.691

Exam item: Dear colleague, I am looking for the recorded max response, negative = inhibition of the following compound: O=C(C1CC(=O)N(C2CCCCC2)C1)N1CCN(c2ccccc2)CC1 (stereo not given)
Marked response: -11.8

Exam item: Dear colleague, I am looking for the recorded max response, negative = inhibition of the following compound: O=C(c1cccc(Br)c1)N1CCN(Cc2cc(=O)n3nc(-c4ccccc4)sc3n2)CC1
Marked response: 13

Exam item: Dear colleague, I am looking for the recorded max response, negative = inhibition of the following compound: COc1cc(OC)cc(C(=O)NCCc2csc3nc(-c4ccccc4F)nn23)c1
Marked response: 1.56

Exam item: Dear colleague, I am looking for the recorded max response, negative = inhibition of the following compound: Cc1ccc(S(=O)(=O)c2nc(-c3cccs3)oc2N2CCCCC2)cc1
Marked response: 28.2

Exam item: Dear colleague, I am looking for the recorded max response, negative = inhibition of the following compound: O=C(Nc1ccc(Oc2ccccc2)cc1)C1CCN(S(=O)(=O)c2ccc(Cl)cc2)CC1
Marked response: -4.34

Exam item: Dear colleague, I am looking for the recorded max response, negative = inhibition of the following compound: CCOC(=O)c1cc2c(=O)n3ccccc3nc2n(CCCOC)c1=NC(=O)C(C)(C)Oc1ccc(Cl)cc1
Marked response: -19.6

Exam item: Dear colleague, I am looking for the recorded max response, negative = inhibition of the following compound: CCOc1ccc(-c2cc3nc(C4CCN(C(=O)OC(C)(C)C)CC4)c(C(=O)Nc4ccc(C(=O)OC)cc4)cn3n2)cc1
Marked response: -12.8

Exam item: Dear colleague, I am looking for the recorded max response, negative = inhibition of the following compound: O=C(Nc1cccc(Cl)c1)c1csnn1
Marked response: -5.14

* * *

# tested_system: Vitamin D3 receptor (Homo sapiens) (UniProt P11473)
# method_summary: Inhibitors of the vitamin D receptor (VDR): qHTS; note: potency is the fitted concentration of half-maximal effect
# setup_conditions: VDR-SRC2-3 peptide fluorescence polarization, 2 h
The campaign covered roughly 400,000 compounds. About 3,700 (0.93%) were called active. About 3% were inconclusive and are not listed. Only a selection was taken, and actives are over-represented in it overall.
I'd be grateful if you could share measured Potency for these entries.

Exam item: Dear colleague, I am looking for the recorded Potency of the following molecule: CSc1ccccc1C(=O)Nc1cccc(C(C)=O)c1
Marked response: 39.8 µM (active)

Exam item: Dear colleague, I am looking for the recorded Potency of the following molecule: CCOc1ccc(NC(=O)c2c(NC(=O)Cc3ccccc3)sc3c2CCCCC3)cc1
Marked response: 17.8 µM (active)

Exam item: Dear colleague, I am looking for the recorded Potency of the following molecule: CCOc1ccc(NC(=O)c2c(NC(=O)Cc3ccccc3)sc3c2CCC(C)C3)cc1 (configuration not stated)
Marked response: 79.4 µM (active)

Exam item: Dear colleague, I am looking for the recorded Potency of the following molecule: Cc1ccc(SC(CC(=O)c2ccc(C(C)(C)C)cc2)C(=O)O)cc1 (configuration not stated)
Marked response: 20 µM (active)

Exam item: Dear colleague, I am looking for the recorded Potency of the following molecule: CCOc1ccc(N(Cc2ccccc2)C(=O)c2nc(S(C)(=O)=O)ncc2Cl)cc1
Marked response: 12.6 µM (active)

Exam item: Dear colleague, I am looking for the recorded Potency of the following molecule: COC(=O)c1sc(=S)n(-c2ccccc2)c1N
Marked response: 79.4 µM (active)

Exam item: Dear colleague, I am looking for the recorded Potency of the following molecule: Cc1cc(C)cc(C(=O)NC2C(=O)N3C(C(=O)O)=C(CSc4nnc(C)s4)CSC23)c1 (configuration not stated)
Marked response: 79.4 µM (active)

Exam item: Dear colleague, I am looking for the recorded Potency of the following molecule: O=C1/C(=C\c2ccc([N+](=O)[O-])cc2)CS(=O)(=O)C/C1=C/c1ccc([N+](=O)[O-])cc1
Marked response: 39.8 µM (active)

Exam item: Dear colleague, I am looking for the recorded Potency of the following molecule: CN(C)c1nc(=Nc2cccc(Cl)c2)ss1
Marked response: 25.1 µM (active)

Exam item: Dear colleague, I am looking for the recorded Potency of the following molecule: CCOc1ccc(N(CC(=O)OC)S(=O)(=O)c2c(C)noc2C)cc1
Marked response: 89.1 µM (active)

Exam item: Dear colleague, I am looking for the recorded Potency of the following molecule: Cc1nc(-c2ccccc2)sc1C(=O)/C=C/c1ccccc1
Marked response: 79.4 µM (active)

Exam item: Dear colleague, I am looking for the recorded Potency of the following molecule: Cc1cc(C(=O)CCl)c(C)n1CC1COc2ccccc2O1 (configuration not stated)
Marked response: 89.1 µM (active)

Exam item: Dear colleague, I am looking for the recorded Potency of the following molecule: O=C(/C=C/c1ccccc1)c1ccccc1O
Marked response: 17.8 µM (active)

Exam item: Dear colleague, I am looking for the recorded Potency of the following molecule: Cc1ccc(/C=N/NC(=O)CSc2nc3ccccc3o2)cc1
Marked response: 79.4 µM (active)

Exam item: Dear colleague, I am looking for the recorded Potency of the following molecule: COc1cccc(NCCC(=O)c2cccc([N+](=O)[O-])c2)c1
Marked response: 79.4 µM (active)

Exam item: Dear colleague, I am looking for the recorded Potency of the following molecule: CCOC(=O)Cc1csc(NC(=O)CSc2nc(C)cc(=O)[nH]2)n1
Marked response: 44.7 µM (active)

Exam item: Dear colleague, I am looking for the recorded Potency of the following molecule: Cc1ccc(CS(=O)(=O)c2ncc(Cl)c(C(=O)Nc3nnc(C)s3)n2)cc1
Marked response: 25.1 µM (active)

Exam item: Dear colleague, I am looking for the recorded Potency of the following molecule: CSc1nnc(NC(=O)c2nc(S(=O)(=O)Cc3ccc(C)cc3)ncc2Cl)s1
Marked response: 11.2 µM (active)

Exam item: Dear colleague, I am looking for the recorded Potency of the following molecule: O=C(O)C(c1ccccc1)N1C(=O)/C(=C\c2ccc(-c3cccc(Cl)c3)o2)SC1=S (configuration not stated)
Marked response: 79.4 µM (active)

Exam item: Dear colleague, I am looking for the recorded Potency of the following molecule: COc1cc(C2CC(=O)N3CN(Cc4ccccc4)CSC3=C2C#N)ccc1OCc1ccccc1 (configuration not stated)
Marked response: 22.4 µM (active)

Exam item: Dear colleague, I am looking for the recorded Potency of the following molecule: CCOC(=O)c1sc(NC(=O)CSc2nc(C)cc(C(F)(F)F)n2)c(C#N)c1C
Marked response: 28.2 µM (active)

Exam item: Dear colleague, I am looking for the recorded Potency of the following molecule: COc1cc(/C=C2/C(=O)NN(c3cccc(Cl)c3)C2=O)cc(Br)c1O
Marked response: 22.4 µM (active)
